Recorded measurements of log10(IC50), one per entry
Biological target: recombinant human DAO (diamine oxidase) (Homo sapiens, UniProt P19801)
Construct: purchased R&D systems
Sequence (P19801 20-751): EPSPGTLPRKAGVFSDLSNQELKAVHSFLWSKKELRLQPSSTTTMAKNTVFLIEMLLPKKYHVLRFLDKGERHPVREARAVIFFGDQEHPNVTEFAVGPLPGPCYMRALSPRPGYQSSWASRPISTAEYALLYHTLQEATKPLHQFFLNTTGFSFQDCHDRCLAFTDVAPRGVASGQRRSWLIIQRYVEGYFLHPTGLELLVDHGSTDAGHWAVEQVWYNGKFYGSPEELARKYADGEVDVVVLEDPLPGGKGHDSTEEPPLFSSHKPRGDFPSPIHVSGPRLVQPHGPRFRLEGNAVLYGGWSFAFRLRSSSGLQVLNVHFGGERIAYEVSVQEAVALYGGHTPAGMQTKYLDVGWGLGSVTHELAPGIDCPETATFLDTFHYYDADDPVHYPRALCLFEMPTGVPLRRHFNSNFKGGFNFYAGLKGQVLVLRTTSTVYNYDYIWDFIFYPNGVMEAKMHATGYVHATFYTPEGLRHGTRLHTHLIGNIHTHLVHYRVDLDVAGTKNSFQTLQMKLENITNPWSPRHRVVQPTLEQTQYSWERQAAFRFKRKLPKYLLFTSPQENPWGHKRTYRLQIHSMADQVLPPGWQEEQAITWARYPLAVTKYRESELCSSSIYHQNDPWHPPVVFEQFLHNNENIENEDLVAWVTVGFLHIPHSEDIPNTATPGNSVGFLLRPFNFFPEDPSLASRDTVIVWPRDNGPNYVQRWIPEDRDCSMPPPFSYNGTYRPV
Assay: Activity on recombinant human DAO, method similar to VAP-1 assay, 1 mM putrescine substrate
Assay type: biochemical
Conditions: read-out: Inhibitory Activity (IC50, nM) DAO
Structures can show the parent of a compound that is named as a salt.
Assay metric: log10(IC50) (log10 of the value in nM)

CS(=O)(=O)c1ccc(-c2ccn3c(=O)n(CC(CN)=C(F)F)nc3c2)cc1 [Example 48, trifluoroacetate]    2.00
NCC(Cn1nc2cc(C#Cc3cnc4c(c3)OCCN4)ccn2c1=O)=C(F)F [Example 61, ditrifluoroacetate]    2.34
CCn1cc(-c2ccn3c(=O)n(CC(CN)=C(F)F)nc3c2)cn1 [Example 55, trifluoroacetate]    3.26
NC/C(=C\F)Cn1nc2cc(-c3ccc4nn[nH]c4c3)ccn2c1=O [Example 39, hydrochloride]    -0.70
NCC(Cn1nc2cc(C#Cc3cnc4c(c3)NCCO4)ccn2c1=O)=C(F)F [Example 60, ditrifluoroacetate]    2.34
NCC(Cn1nc2cc(-c3ccc4c(c3)OCO4)ccn2c1=O)=C(F)F [Example 52, trifluoroacetate]    2.20
NC/C(=C\F)Cn1nc2cc(C3=CCNCC3)ccn2c1=O [Example 34, dihydrochloride]    0.00
Cc1cc(-c2ccn3c(=O)n(CC(CN)=C(F)F)nc3c2)cc2c1NC(=O)CC2 [Example 53, trifluoroacetate]    1.08
NCC(Cn1nc2cc(C#Cc3ccc4c(c3)CCC(=O)N4)ccn2c1=O)=C(F)F [Example 62, trifluoroacetate]    2.18
CN1CCOc2cc(C#Cc3ccn4c(=O)n(CC(CN)=C(F)F)nc4c3)ccc21 [Example 63, trifluoroacetate]    2.51
NC/C(=C\F)Cn1nc2cc(-c3cccc(-c4cc[nH]n4)c3)ccn2c1=O [Example 26, hydrochloride]    0.28
NCC(Cn1nc2cc(-c3ccc(C(F)(F)F)nc3)ccn2c1=O)=C(F)F [Example 50, trifluoroacetate]    0.48

---

IC50 values, listed per item
biological target: recombinant human DAO (diamine oxidase) (Homo sapiens); construct: purchased R&D systems; assay: Activity on recombinant human DAO, method similar to VAP-1 assay, 1 mM putrescine substrate; format: biochemical; conditions: read-out: Inhibitory Activity (IC50, nM) DAO
Structures can show the parent of a compound that is named as a salt.
Assay metric: IC50

NC/C(=C\F)Cn1nc2ccc(-c3ccc(S(=O)(=O)N4CCOCC4)cc3)cn2c1=O [Example 4, trifluoroacetate]    < 100 nM
NC/C(=C\F)Cn1nc2ccc(-c3ccc4sc(N)nc4c3)cn2c1=O [Example 14, trifluoroacetate]    < 100 nM
CC(=O)Nc1nc2cc(-c3ccc4nn(C/C(=C/F)CN)c(=O)n4c3)ccc2s1 [Example 15, trifluoroacetate]    < 100 nM

---

biological target: recombinant human DAO (diamine oxidase) (Homo sapiens, UniProt P19801); construct: purchased R&D systems; assay: Activity on recombinant human DAO, method similar to VAP-1 assay, 1 mM putrescine substrate; type: biochemical; details: read-out: Inhibitory Activity (IC50, nM) DAO
Structures can show the parent of a compound that is named as a salt.
Assay metric: IC50

NC/C(=C\F)Cn1nc2ccc(-c3ccc4c(c3)OCCO4)cn2c1=O [Example 13, trifluoroacetate]    < 100 nM
CC(=O)Nc1ccc(-c2ccc3nn(C/C(=C/F)CN)c(=O)n3c2)cc1 [Example 2, trifluoroacetate]    < 100 nM
CS(=O)(=O)c1ccc(-c2ccc3nn(C/C(=C/F)CN)c(=O)n3c2)cc1 [Example 3, trifluoroacetate]    < 100 nM

---

Below, each entry is listed with its recorded IC50.
target: recombinant human MAO-A (monoamine oxidase-A) (Homo sapiens, UniProt P21397); construct: purchased Sigma-Aldrich; assay: Activity on recombinant human MAO-A, method similar to VAP-1 assay, 0.5 mM tyramine substrate; type: biochemical; conditions: read-out: Inhibitory Activity (IC50, nM) MAO-A
Sequence (P21397 whole entry): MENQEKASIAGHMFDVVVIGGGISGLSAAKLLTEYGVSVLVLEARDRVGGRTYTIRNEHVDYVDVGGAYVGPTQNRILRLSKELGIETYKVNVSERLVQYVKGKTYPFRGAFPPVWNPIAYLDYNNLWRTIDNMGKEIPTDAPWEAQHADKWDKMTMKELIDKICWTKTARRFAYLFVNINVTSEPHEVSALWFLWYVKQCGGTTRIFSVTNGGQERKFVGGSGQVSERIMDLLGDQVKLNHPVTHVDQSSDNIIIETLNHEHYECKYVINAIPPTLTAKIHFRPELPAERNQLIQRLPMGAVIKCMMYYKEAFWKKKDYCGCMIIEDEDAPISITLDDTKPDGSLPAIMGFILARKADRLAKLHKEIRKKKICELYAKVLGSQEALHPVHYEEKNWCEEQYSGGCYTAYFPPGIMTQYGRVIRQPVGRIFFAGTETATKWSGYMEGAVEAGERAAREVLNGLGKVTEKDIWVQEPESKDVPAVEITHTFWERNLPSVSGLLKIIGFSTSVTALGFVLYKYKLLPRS
Counter-ions that a name gives are not always drawn.
Assay metric: IC50

NC/C(=C\F)Cn1nc2cc(-c3ccc(-c4noc(C5CC5)n4)cc3)ccn2c1=O [Example 29, hydrochloride]    44000 nM
NC/C(=C\F)Cn1nc2cc(-c3cccc(-c4noc(C5CC5)n4)c3)ccn2c1=O [Example 28, hydrochloride]    > 100000 nM
NCC(Cn1nc2cc(C#Cc3cnc4c(c3)OCCN4)ccn2c1=O)=C(F)F [Example 61, ditrifluoroacetate]    > 100000 nM
NC/C(=C\F)Cn1nc2ccc(-c3ccc(S(=O)(=O)N4CCOCC4)cc3)cn2c1=O [Example 4, trifluoroacetate]    > 100000 nM
NC/C(=C\F)Cn1nc2cc(-c3ccc(-c4ccon4)cc3)ccn2c1=O [Example 25, hydrochloride]    18000 nM
NCC(Cn1nc2cc(-c3ccc(C(F)(F)F)nc3)ccn2c1=O)=C(F)F [Example 50, trifluoroacetate]    > 100000 nM
NC/C(=C\F)Cn1nc2ccc(-c3ccc4c(c3)OCCO4)cn2c1=O [Example 13, trifluoroacetate]    > 100000 nM

---

Reported IC50 values for a set of molecules
target: recombinant human DAO (diamine oxidase) (Homo sapiens, UniProt P19801); construct: purchased R&D systems; assay: Activity on recombinant human DAO, method similar to VAP-1 assay, 1 mM putrescine substrate; format: biochemical; conditions: read-out: Inhibitory Activity (IC50, nM) DAO
Structures can show the parent of a compound that is named as a salt.
Assay metric: IC50

NC/C(=C\F)Cn1nc2ccc(-c3ccc(-c4nc[nH]n4)cc3)cn2c1=O [Example 5, trifluoroacetate]    < 100 nM
NC/C(=C\F)Cn1nc2ccc(-c3ccc(N4CCOCC4)nc3)cn2c1=O [Example 10, trifluoroacetate]    < 100 nM
NC/C(=C\F)Cn1nc2ccc(-c3cccc(-c4nc[nH]n4)c3)cn2c1=O    < 100 nM

Cited source: patent US11091479B2
